- Tested on: Enterococcus faecium
- method-summary: Antibacterial activity against VAN-resistant Enterococcus faecium ATCC 700221 after 18 hrs by agar dilution method
- Assay type: functional
- assay-setup: ATCC 700221, 18 h
measurement-type: MIC

smiles-str	measurement-type	endpoint-result
C=CCc1c2c(OC)c(OC)ccc2c2ccc3c4c(cc5c3c2[n+]1CC5)OCO4.[Br-]	MIC	16 µg/mL
COc1ccc2c(c1OC)c(-c1ccccc1)[n+]1c3c2ccc2c4c(cc(c23)CC1)OCO4.[Br-]	MIC	4 µg/mL
COc1cc2c3c(ccc4c5ccc(OC)c(OC)c5c(-c5ccc(Cl)cc5)[n+](c43)CC2)c1OC.[Br-]	MIC	> 128 µg/mL
CCCc1cc2c3ccc(OC)c(OC)c3c[n+]3c2c2c(cc4c(c12)OCO4)CC3.[Cl-]	MIC	8 µg/mL
